pKi: −log10 of the molar value.
The reader will find pKi measurements below, all made with Tyrosine-protein kinase JAK2 (Homo sapiens, UniProt O60674).
Sequence (O60674 whole entry): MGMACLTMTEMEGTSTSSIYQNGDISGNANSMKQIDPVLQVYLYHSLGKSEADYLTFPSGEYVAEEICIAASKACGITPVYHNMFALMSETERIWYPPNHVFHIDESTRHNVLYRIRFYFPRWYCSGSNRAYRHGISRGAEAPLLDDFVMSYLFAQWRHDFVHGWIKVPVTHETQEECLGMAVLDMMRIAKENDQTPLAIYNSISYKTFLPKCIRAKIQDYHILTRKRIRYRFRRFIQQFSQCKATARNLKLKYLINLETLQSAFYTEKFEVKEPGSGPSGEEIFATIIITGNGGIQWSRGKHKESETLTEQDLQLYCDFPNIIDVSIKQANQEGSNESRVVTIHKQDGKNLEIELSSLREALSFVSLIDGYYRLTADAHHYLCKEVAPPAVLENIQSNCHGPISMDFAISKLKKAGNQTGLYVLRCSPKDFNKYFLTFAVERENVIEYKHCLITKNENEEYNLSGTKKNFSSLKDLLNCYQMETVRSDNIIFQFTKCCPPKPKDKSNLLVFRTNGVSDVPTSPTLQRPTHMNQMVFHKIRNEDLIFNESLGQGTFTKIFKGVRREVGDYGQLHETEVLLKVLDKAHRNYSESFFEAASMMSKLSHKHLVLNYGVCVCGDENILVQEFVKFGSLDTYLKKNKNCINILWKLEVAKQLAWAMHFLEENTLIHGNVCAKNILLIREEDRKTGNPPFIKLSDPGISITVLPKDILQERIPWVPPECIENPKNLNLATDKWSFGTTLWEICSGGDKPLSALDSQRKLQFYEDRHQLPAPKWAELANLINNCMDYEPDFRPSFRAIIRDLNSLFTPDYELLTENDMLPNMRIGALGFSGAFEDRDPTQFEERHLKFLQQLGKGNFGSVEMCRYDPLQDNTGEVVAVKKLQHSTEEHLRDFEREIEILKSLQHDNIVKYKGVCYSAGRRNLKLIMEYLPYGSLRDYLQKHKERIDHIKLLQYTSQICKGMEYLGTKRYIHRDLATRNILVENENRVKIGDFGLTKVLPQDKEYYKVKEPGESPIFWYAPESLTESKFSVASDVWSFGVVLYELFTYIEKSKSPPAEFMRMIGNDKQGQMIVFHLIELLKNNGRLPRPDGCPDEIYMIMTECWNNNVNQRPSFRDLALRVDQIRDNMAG

> print(dat)
                                     mol  testresult
1  COc1ccc(C2=NNC(=O)/C2=N\Nc2cccnc2)cc1      < 5.40
2    COc1ccncc1C1=NNC(=O)/C1=N\Nc1ccccc1        5.46

Kindly consider the entry below.
Tyrosine-protein kinase JAK2 (Homo sapiens, UniProt O60674) / pKi / "COc1ccc(C2=NNC(=O)/C2=N\Nc2cccc(OC)c2)cc1" : value?
< 5.80

---

Entries with their measured pKi, system Vascular endothelial growth factor receptor 2 (Homo sapiens):
Please treat pKi as minus the base-10 logarithm of the molar concentration.

> print(dat)
                                        mol  testresult
1  COc1ccc(C2=NNC(=O)/C2=N\Nc2cccc(OC)c2)cc1        5.74

Read the next record carefully.
What does the record list as pKi for "COc1ccncc1C1=NNC(=O)/C1=N\Nc1ccccc1" ?
6.00
